tested on: SARS-CoV-2; assay: microbe, parasite or virus in culture; type: cell-based; conditions: Severe acute respiratory syndrome coronavirus 2, Vero, read-out: Effective drug concentration (EC50)
measurement.type: EC50
Answer by giving the amount and then stating its unit.

Check the records and state EC50 for CCN(CC)CCCC(C)Nc1ccnc2cc(Cl)ccc12 (stereo not shown) [Chloroquine, chloroquine] 13 µM

====

assay: in vitro; conditions: African green monkey (Cercopithecus aethiops)
measurement.type: CC50

Fill in CC50 for record CCN(CC)CCCC(C)Nc1ccnc2cc(Cl)ccc12 (stereo not shown) [Chloroquine, chloroquine] > 100 µM
